# credit: ChEMBL document CHEMBL5724914

CONDITION: human gut metagenome, 24 h, 2 µM; further: call rule not given here
READOUT: Bacterial Biotransformation

                                    compound                      readout               assay_value
 0  NC(=O)N1c2ccccc2CC(=O)c2ccccc21 [OXCARBAZEPINE]  Bacterial Biotransformation  Compound NOT metabolized
 1  CCCC(=O)Nc1ccc(OCC(O)CNC(C)C)c(C(C)=O)c1 (stereo not given)  Bacterial Biotransformation  Compound NOT metabolized
 2  CCCc1nc(C(C)(C)O)c(C(=O)OCc2oc(=O)oc2C)n1Cc1ccc(-c2ccccc2-c2nnn[nH]2)cc1  Bacterial Biotransformation      Compound metabolized
 3  CCN(CC)CCOC(=O)C(Cc1cccc2ccccc12)CC1CCCO1.O=C(O)C(=O)O (stereo not given) [NAFRONYL OXALATE]  Bacterial Biotransformation      Compound metabolized
 4  COc1ccccc1OCC(O)COC(N)=O (stereo not given)  Bacterial Biotransformation  Compound NOT metabolized
 5                 COc1c2occc2cc2ccc(=O)oc12  Bacterial Biotransformation      Compound metabolized
 6      Clc1ccc(Cn2c(CN3CCCC3)nc3ccccc32)cc1  Bacterial Biotransformation  Compound NOT metabolized
 7  OC(CCN1CCCCC1)(c1ccccc1)C1CCCCC1 (stereo not given)  Bacterial Biotransformation      Compound metabolized
 8  O=C(Nc1ccccc1)OCC(CN1CCCCC1)OC(=O)Nc1ccccc1 (stereo not given)  Bacterial Biotransformation  Compound NOT metabolized
 9           Cc1ccnc2c1NC(=O)c1cccnc1N2C1CC1  Bacterial Biotransformation  Compound NOT metabolized
10  Cc1cn([C@H]2C[C@H](N=[N+]=[N-])[C@@H](CO)O2)c(=O)[nH]c1=O  Bacterial Biotransformation  Compound NOT metabolized
11       Cc1cc2c(cc1S(N)(=O)=O)S(=O)(=O)CCC2  Bacterial Biotransformation  Compound NOT metabolized
12                      CCOc1ccc(NC(C)=O)cc1  Bacterial Biotransformation  Compound NOT metabolized
13  Cc1ccc(-c2cc(C(F)(F)F)nn2-c2ccc(S(N)(=O)=O)cc2)cc1  Bacterial Biotransformation      Compound metabolized
14  CC(O)(CS(=O)(=O)c1ccc(F)cc1)C(=O)Nc1ccc(C#N)c(C(F)(F)F)c1 (stereo not given) [BICALUTAMIDE]  Bacterial Biotransformation  Compound NOT metabolized
15      N#Cc1ccc(C(c2ccc(C#N)cc2)n2cncn2)cc1  Bacterial Biotransformation  Compound NOT metabolized
16  CC(=O)OCC(=O)[C@@]1(O)[C@@H](C)C[C@H]2[C@@H]3CCC4=CC(=O)C=C[C@]4(C)[C@@]3(F)[C@@H](O)C[C@@]21C [BETAMETHASONE ACETATE]  Bacterial Biotransformation      Compound metabolized
17  CCC1(c2ccc(N)cc2)CCC(=O)NC1=O (stereo not given) [AMINOGLUTETHIMIDE]  Bacterial Biotransformation  Compound NOT metabolized
18                 Nc1nc2ccc(OC(F)(F)F)cc2s1  Bacterial Biotransformation      Compound metabolized
19  COC(=O)C1=C(C)NC(C)=C(C(=O)OC(C)C)C1c1cccc2nonc12 (stereo not given)  Bacterial Biotransformation      Compound metabolized
20  C#C[C@]1(O)CC[C@H]2[C@@H]3CCC4=Cc5oncc5C[C@]4(C)[C@H]3CC[C@@]21C  Bacterial Biotransformation      Compound metabolized
21  CCOC(=O)[C@H](CCc1ccccc1)N[C@H]1CCc2ccccc2N(CC(=O)O)C1=O  Bacterial Biotransformation      Compound metabolized
22  O=C1[C@H](CC[C@H](O)c2ccc(F)cc2)[C@@H](c2ccc(O)cc2)N1c1ccc(F)cc1  Bacterial Biotransformation  Compound NOT metabolized
23  C[C@@H]1C[C@H]2[C@@H]3CCC4=CC(=O)C=C[C@]4(C)[C@@]3(F)[C@@H](O)C[C@]2(C)[C@@]1(O)C(=O)CO  Bacterial Biotransformation  Compound NOT metabolized
24   COC(=O)Nc1nc2ccc(C(=O)c3ccccc3)cc2[nH]1  Bacterial Biotransformation      Compound metabolized
25  CC(C)NCC(O)COc1ccc(CCOCC2CC2)cc1 (stereo not given)  Bacterial Biotransformation  Compound NOT metabolized
26            O=C(NCc1ccccc1)OCCO [BURAMATE]  Bacterial Biotransformation  Compound NOT metabolized
27  COc1ccc2c3c1O[C@H]1C[C@@H](O)C=C[C@@]31CCN(C)C2  Bacterial Biotransformation  Compound NOT metabolized
28  CC(C)N(CCC(C(N)=O)(c1ccccc1)c1ccccn1)C(C)C.O=P(O)(O)O (stereo not given) [DISOPYRAMIDE PHOSPHATE]  Bacterial Biotransformation  Compound NOT metabolized
29  COc1ccc2[nH]c([S+]([O-])Cc3ncc(C)c(OC)c3C)nc2c1 (stereo not given)  Bacterial Biotransformation      Compound metabolized
30  O=C1NCC2(CCN(CCc3ccccc3)CC2)O1 [FENSPIRIDE]  Bacterial Biotransformation  Compound NOT metabolized
31  CC[C@@H](CO)NC(=O)[C@@H]1C=C2c3cccc4c3c(cn4C)C[C@H]2N(C)C1.O=C(O)/C=C\C(=O)O [METHYSERGIDE MALEATE]  Bacterial Biotransformation  Compound NOT metabolized
32  COc1cc2nc(N3CCN(C(=O)c4ccco4)CC3)nc(N)c2cc1OC  Bacterial Biotransformation  Compound NOT metabolized
33  Cc1nc2n(c(=O)c1CCN1CCC(c3noc4cc(F)ccc34)CC1)CCCC2O (stereo not given)  Bacterial Biotransformation      Compound metabolized
34  CC(C)(C#N)c1cc(Cn2cncn2)cc(C(C)(C)C#N)c1  Bacterial Biotransformation  Compound NOT metabolized
